Recorded IC50, one value per entry.
Target: mtGPAT1 (Mus musculus, UniProt Q61586)
Construct: from tissue; host or cells: mitochondrial preparation
Sequence (Q61586 whole entry): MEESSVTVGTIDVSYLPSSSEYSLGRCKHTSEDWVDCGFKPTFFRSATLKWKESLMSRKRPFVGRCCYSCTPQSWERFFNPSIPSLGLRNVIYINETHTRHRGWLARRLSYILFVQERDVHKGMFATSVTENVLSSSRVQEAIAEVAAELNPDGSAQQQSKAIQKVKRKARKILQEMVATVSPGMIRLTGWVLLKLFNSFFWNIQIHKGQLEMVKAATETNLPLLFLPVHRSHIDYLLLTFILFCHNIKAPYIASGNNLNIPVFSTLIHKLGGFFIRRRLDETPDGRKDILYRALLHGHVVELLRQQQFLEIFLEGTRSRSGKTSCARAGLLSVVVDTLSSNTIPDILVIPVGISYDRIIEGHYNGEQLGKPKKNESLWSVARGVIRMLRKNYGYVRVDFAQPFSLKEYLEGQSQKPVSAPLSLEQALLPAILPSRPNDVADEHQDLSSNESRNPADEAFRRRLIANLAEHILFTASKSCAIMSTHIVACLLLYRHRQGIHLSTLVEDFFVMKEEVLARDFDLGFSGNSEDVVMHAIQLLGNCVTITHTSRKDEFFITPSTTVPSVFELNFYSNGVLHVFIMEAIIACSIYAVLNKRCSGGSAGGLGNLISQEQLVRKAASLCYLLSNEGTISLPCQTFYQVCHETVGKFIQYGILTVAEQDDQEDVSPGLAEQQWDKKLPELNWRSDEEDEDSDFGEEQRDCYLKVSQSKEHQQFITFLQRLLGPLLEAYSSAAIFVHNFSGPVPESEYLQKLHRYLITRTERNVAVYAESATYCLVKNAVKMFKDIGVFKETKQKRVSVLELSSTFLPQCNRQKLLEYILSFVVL
Assay: In vitro mtGPAT inhibition: acylation of 14C-glycerol 3-phosphate with palmitoyl-CoA, scintillation counting
Format: biochemical
Settings: compounds 4a-t and 7a-t; read-out: GPAT IC50
Method: The compounds produced as described above were evaluated for their ability to inhibit the acylation of glycerol-3-phosphate in vitro. The acylation reaction between ^14C-labelled glycerol-3-phosphate and palmitoyl-CoA, initiated by adding mtGPAT, was measured in the presence of varying concentrations of the inhibitor by scintillation counting as described in more detail below. […]
value type: IC50 (µM)

INSERT INTO measurements (smiles_notation, value_type, display_unit, measured_result) VALUES
  ('CCCCCCCCS(=O)(=O)Nc1ccc(-c2ccc(Cl)cc2Cl)cc1C(=O)O', 'IC50', 'µM', 17.2),
  ('CCCCCCCCS(=O)(=O)Nc1ccc(-c2ccccc2F)cc1C(=O)O', 'IC50', 'µM', 31.2),
  ('CCCCCCCCS(=O)(=O)Nc1ccc(-c2ccccc2OC)cc1C(=O)O', 'IC50', 'µM', 23.4),
  ('CCCCCCCCS(=O)(=O)Nc1ccc(-c2ccccc2O)cc1C(=O)O', 'IC50', 'µM', 63.4),
  ('CCCCCCCCS(=O)(=O)Nc1cc(-c2cccc(F)c2)ccc1C(=O)O', 'IC50', 'µM', 28.7);
